FYI, the data here is from patent US20210000830A1.

Record form. Attribute: CI (median value). Fill in for each entry.
test system: TPM3-NTRK1-positive human colon cancer cell lines KM12; test: Growth inhibition test in TPM3-NTRK1 positive KM12 cell lines (CellTiter-Glo, combination index); format: cell-based; conditions: named kinase inhibitor used in combination with compound A; KM12 cells, 72 hours; CI<1 synergistic
Write no unit; give the number alone.

GET /values?readout=CI (median value)&item= CC(=O)c1c(C)c2cnc(Nc3ccc(N4CCNCC4)cn3)nc2n(C2CCCC2)c1=O 0.660

GET /values?readout=CI (median value)&item= CC(=O)Nc1cccc(-n2c(=O)n(C3CC3)c(=O)c3c(Nc4ccc(I)cc4F)n(C)c(=O)c(C)c32)c1 0.705

GET /values?readout=CI (median value)&item= CN(C)C/C=C/C(=O)Nc1cc2c(Nc3ccc(F)c(Cl)c3)ncnc2cc1O[C@H]1CCOC1 0.861

GET /values?readout=CI (median value)&item= Cn1cnc2c(F)c(Nc3ccc(Br)cc3Cl)c(C(=O)NOCCO)cc21 0.674
